- target.under.test: Alpha-synuclein (Homo sapiens, UniProt P37840)
- experimental.details: Binding affinity to alpha-synuclein LMV 50 kDa (unknown origin) expressed in Escherichia coli BL21(DE3) cells incubated for 30 mins by spectrofluorometric analysis
recorded.endpoint: Kd (µM)
One number for each entry, in µM.

What is its Kd for Alpha-synuclein (Homo sapiens, UniProt P37840)? Entry: COc1cc(/C=C/C(=O)CC(=O)/C=C/c2ccc(O)c(OC)c2)ccc1O [CURCUMIN]
6.5

###

- target.under.test: Alpha-synuclein (Homo sapiens, UniProt P37840)
- experimental.details: Inhibition of human alpha-synuclein filament formation expressed in Escherichia coli BL21(DE3) cells incubated for 72 hrs by thioflavin S based fluorescence assay
recorded.endpoint: pIC50
Numbers only, as −log10 of the molar value.

Oc1cc(O)c2cc(O)c(-c3cc(O)c(O)c(O)c3)[o+]c2c1 [DELPHINIDIN CHLORIDE] : 5.19
Oc1cc(O)c2c(c1)O[C@H](c1cc(O)c(O)c(O)c1)[C@H](O)C2 [EPIGALLOCATECHIN] : 4.97
O=C(O[C@@H]1Cc2c(O)cc(O)cc2O[C@@H]1c1ccc(O)c(O)c1)c1cc(O)c(O)c(O)c1 [EPICATECHIN GALLATE] : 5.01
Oc1cc(O)c2c(c1)O[C@H](c1ccc(O)c(O)c1)[C@H](O)[C@H]2c1c(O)cc(O)c2c1O[C@H](c1ccc(O)c(O)c1)[C@@H](O)C2 [PROCYANIDIN B1] : 5.14
Oc1cc(O)c2c(c1)O[C@H](c1ccc(O)c(O)c1)[C@H](O)C2 [(-)-EPICATECHIN] : 4.52
O=C(O[C@@H]1Cc2c(O)cc(O)cc2O[C@H]1c1ccc(O)c(O)c1)c1cc(O)c(O)c(O)c1 [(-)-CATECHINGALLATE] : 4.67

Query: pIC50; subject: O=c1cc(-c2ccccc2)oc2cc(O)c(O)c(O)c12 [BAICALEIN]
5.09

###

- target.under.test: UniProt:P37840
- experimental.details: Inhibition of alpha-synuclein aggregation (unknown origin) expressed in Escherichia coli BL21(DE3) cells assessed as HFIP-induced protein aggregation measured after 16 to 18 hrs by thioflavin T based fluorescence assay relative to control
- Set-up: scale not given: the % may be the effect or the level left
- assay.setup: time hrs 16-18
recorded.endpoint: Activity (%)
Numbers only, in %.

Solved entries:
CCC(=O)N[C@@H](Cc1c[nH]c2ccccc12)C(=O)N[C@H](C(=O)N1CCC[C@@H]1C(=O)NCC(=O)N[C@@H](CCCCN)C(=O)N[C@@H](Cc1c[nH]c2ccccc12)C(=O)N[C@H](C(=O)NCC(N)=O)[C@@H](C)O)[C@@H](C)CC : 37
CC[C@H](C)[C@H](NC(=O)[C@H](Cc1c[nH]c2ccccc12)NC(=O)[C@H](CCCCN)NC(=O)CN)C(=O)N[C@H](C(=O)N[C@H](C(=O)N[C@@H](CO)C(=O)N[C@H](C(=O)N1CCC[C@@H]1C(=O)N1CCC[C@H]1C(=O)N[C@@H](CCCCN)C(=O)N[C@@H](CCCCN)C(=O)N[C@@H](CC(C)C)C(=O)N[C@H](C(=O)N[C@H](C(=O)N[C@@H](Cc1c[nH]c2ccccc12)C(=O)N[C@H](C(=O)N1CCC[C@@H]1C(=O)O)[C@@H](C)CC)C(C)C)[C@@H](C)O)[C@@H](C)CC)C(C)C)[C@@H](C)O : 34

Give Activity for each of the items listed below.
1. CC[C@H](C)[C@H](NC(=O)[C@H](Cc1c[nH]c2ccccc12)NC(=O)[C@H](CCCCN)NC(=O)CNC(=O)[C@H]1CCCN1C(=O)[C@@H](NC(=O)[C@H](Cc1c[nH]c2ccccc12)NC(=O)[C@@H](NC(=O)[C@@H](NC(=O)[C@H](CC(C)C)NC(=O)[C@H](CS)NC(=O)[C@@H](N)CCCCN)[C@@H](C)O)C(C)C)[C@@H](C)CC)C(=O)N[C@H](C(=O)N[C@H](C(=O)N[C@@H](CS)C(=O)N[C@@H](C)C(=O)O)C(C)C)[C@@H](C)O
2. CC[C@H](C)[C@H](NC(=O)[C@H](Cc1c[nH]c2ccccc12)NC(=O)[C@H](CCCCN)NC(=O)CNC(=O)[C@H]1CCCN1C(=O)[C@@H](NC(=O)[C@H](Cc1c[nH]c2ccccc12)NC(=O)[C@@H](NC(=O)[C@@H](NC(=O)[C@H](CC(C)C)NC(=O)[C@H](CCCCN)NC(=O)[C@@H](N)CCCCN)[C@@H](C)O)C(C)C)[C@@H](C)CC)C(=O)N[C@H](C(=O)N[C@H](C(=O)N[C@@H](CO)C(=O)N[C@@H](C)C(=O)O)C(C)C)[C@@H](C)O

[49, 27]
